Origin of values: the supplement of paper PMC12042874

- assay remarks: amyloid nucleation score (Sup35N fusion, yeast selection) (log enrichment); library NNK2; higher = more nucleation; inactive = no reads after selection;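 note: zero at mode of non-aggregating sequences after 7 days selection at 30°C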
measured attribute: amyloid nucleation score

As a guide, the following entries are already answered.
INSERT INTO measurements (substance, measured_attribute, readout_value) VALUES
  ('VYYTCYDE', 'amyloid nucleation score', 0.024),
  ('LQGRYNSTYYMDVAGLVVSE', 'amyloid nucleation score', -1.23),
  ('MYCLFFFMWGCYYYTIFRSV', 'amyloid nucleation score', 'inactive'),
  ('SIRSRLEFSFFL', 'amyloid nucleation score', 3.45),
  ('CPEDVAEFMCRALFRSISIG', 'amyloid nucleation score', 0.45);

Lab note: measured amyloid nucleation score of IKLYCELCYFSNFWKIFTLR was inactive

Note to self: amyloid nucleation score recorded for CNCQYHSVWIT was 0.392

====

- assay remarks: amyloid nucleation score (Sup35N fusion, yeast selection) (log enrichment); library NNK3; higher = more nucleation; inactive = no reads after selection
measured attribute: amyloid nucleation score

INSERT INTO assay_data (seq_string, readout_value) VALUES
  ('ASPTQVNYFTLVKCMVLRTT', 'inactive'),
  ('FYWGAFNPYFVLIGILAYYT', 'inactive'),
  ('TAAYSLFIEVSCSQSTN', 'inactive'),
  ('SSGHMICIYYQLVHIIVRLC', 'inactive'),
  ('IVRYTHSSLVYFTDEMMVNR', 1.19),
  ('VFKSSGPAVTSYWY', 'inactive');

Kindly note the recorded amyloid nucleation score for NYRWTWPMPTQEALTPNSDS , which is inactive

Record FVAHCWQSIY , field amyloid nucleation score: inactive

Recorded amyloid nucleation score (sequence MMHILNGRSEVAPFYSTPIS ): inactive

Summary for this sequence, TIWSCMCVMWITRPSNTRRP : amyloid nucleation score is inactive

Sure, the documented amyloid nucleation score for QICHRGEGFWPINSSIRKVV is inactive

So for TNVTANGVKPHPYPMRSPAT , the logged amyloid nucleation score turned out to be inactive

The recorded amyloid nucleation score for NFIYILLSIINYWWCTYIVY is inactive

The recorded amyloid nucleation score for entry SIAIHSMLKYNVPLVSRHSG equals inactive

====

- assay remarks: amyloid nucleation score (Sup35N fusion, yeast selection) (log enrichment); library NNK3; higher = more nucleation; inactive = no reads after selection
measured attribute: amyloid nucleation score

The cases that follow already have their amyloid nucleation score on record.
INSERT INTO measurements (seq_string, readout_value) VALUES
  ('FHNFVRHIYAGGNRP', 'inactive'),
  ('ESYLQRPRTSTRMFVMRLKV', 'inactive'),
  ('RSTAPGTGSDIPFEDSLRQM', 'inactive'),
  ('KFVFSFGSLYSVLTLERVEG', 0.388),
  ('LSDLEDWRNYRWSKEDLKVE', 'inactive');

Consider ASSKCYINKRSNPGRRGLYG . Its measured amyloid nucleation score is inactive

Field amyloid nucleation score (entry SVKKESCCD ) reads inactive

====

- assay remarks: amyloid nucleation score (Sup35N fusion, yeast selection) (log enrichment); library NNK2; higher = more nucleation; inactive = no reads after selection
Grouping key: amyloid nucleation score. Bins: bottom range (below 0.5), center range (0.5 to below 2), top range (2 or more)

INSERT INTO measurements (substance, cat) VALUES
  ('GTVGGVGMFVLLVTRSKVFV', 'center range'),
  ('IYCVRQSDGQYSSEMAHYII', 'top range'),
  ('TNCINM', 'top range'),
  ('LVWCAISSNNKGLINVLADS', 'bottom range');

Dear colleague, I would appreciate it if you could identify the bin for QQYPWYWIFIFNIYKYPSVS and reply at your convenience. bottom range

In plain terms, what class is KDGSFSPISL ? bottom range

====

- assay remarks: amyloid nucleation score (Sup35N fusion, yeast selection) (log enrichment); library NNK3; higher = more nucleation; inactive = no reads after selection
measured attribute: amyloid nucleation score

INSERT INTO assay_data (substance, readout_value) VALUES
  ('AALVGLRCIAWNYCDTRKRI', 'inactive'),
  ('VTSNSDRT', 'inactive'),
  ('MKGCWFWKVIENFHIKSHCR', 'inactive'),
  ('EGPGDEIFVSG', 'inactive');

Now look at this one.
Field amyloid nucleation score (entry QKNFLGNF ) reads inactive

====

- assay remarks: amyloid nucleation score (Sup35N fusion, yeast selection) (log enrichment); library NNK3; higher = more nucleation; inactive = no reads after selection
measured attribute: amyloid nucleation score

INSERT INTO results (seq_string, readout_value) VALUES
  ('YIMSNLFGGNNLFGG', 'inactive'),
  ('QAKGIRYVGGLTWYNH', 'inactive'),
  ('AVTDLDIFICSG', 'inactive'),
  ('ADLPVIHNNKRLVVVWHWLN', 'inactive'),
  ('FFVYVEHRCSYNGRTSDIFY', -0.185),
  ('HGCWKQPDQVVLLWSHRFFR', 'inactive');

Per the record, STIISWWSTVIYFKLI has amyloid nucleation score of inactive

# sequence AVRFNHAYISQKPQRMLL ; its amyloid nucleation score = inactive

Entry GGHENKKRYSSRTIGMCVHE , amyloid nucleation score reported as inactive

The measured amyloid nucleation score associated with NFRVLVVNVKTFLMVVKVMF reads inactive

Kindly note the recorded amyloid nucleation score for NRKRFGEMNGRNYSVQGGRW , which is inactive

Entry CYLGSHSFSAYCGQLFIFSV — recorded amyloid nucleation score = inactive

Value of amyloid nucleation score reported for the sequence IWVWVWSYWGRNFLSLVRFV is inactive

Looking up LPGNLYFYVTGTCDNYLTVW , I found its amyloid nucleation score recorded as inactive

get_value(item= WYPLGRPRVLINYETPTSVM , readout=amyloid nucleation score) returns inactive

amyloid nucleation score reported for this sequence MESRGALYLSFRGRNCSSTQ : 0.371

The sequence identified as TVGVTYIKVWNVPNILYRGC registered its amyloid nucleation score at 0.769

====

- assay remarks: amyloid nucleation score (Sup35N fusion, yeast selection) (log enrichment); library NNK3; higher = more nucleation; inactive = no reads after selection
measured attribute: amyloid nucleation score

Take a look at these entries with their results.
INSERT INTO measurements (substance, measured_attribute, readout_value) VALUES
  ('GCKWWYSVFREWKSPLSGGV', 'amyloid nucleation score', 'inactive'),
  ('NCSGQTGFGPVMSYWTIDVR', 'amyloid nucleation score', -0.022),
  ('LLGTEIWGCRRISHSGVMRW', 'amyloid nucleation score', -0.009),
  ('AGVNLRTIRVMYRLPIISYL', 'amyloid nucleation score', 'inactive'),
  ('YFKYTN', 'amyloid nucleation score', 1.32);

substance TSGGTFQDATSHNSNSHMWK , amyloid nucleation score observed: inactive

Form field amyloid nucleation score, entry DVMEVNLVPRAFNLCSSSGL : inactive

The recorded amyloid nucleation score for QWKPWDNTAVGMLPAWIWVD is inactive

APVCQWATKARIKCAHWRRT has a reported amyloid nucleation score of inactive

Entry KFLLTWK , amyloid nucleation score reported as inactive

====

- assay remarks: amyloid nucleation score (Sup35N fusion, yeast selection) (log enrichment); library NNK1; higher = more nucleation; inactive = no reads after selection
Output: class label from amyloid nucleation score. Mapping: bin A = under -0.2, bin B = from -0.2 up to 0.6, bin C = 0.6 and over

Band for RYDAWCYGWGVMMLHKFIG ? bin B

====

Recorded amyloid nucleation score for the following sequences
- assay remarks: amyloid nucleation score (Sup35N fusion, yeast selection) (log enrichment); library NNK2; higher = more nucleation; inactive = no reads after selection
Returns: the value as a bare number; no unit string appended.

INSERT INTO assay_data (seq_string, readout_value) VALUES
  ('EVTILVGKGERLKRTYCSR', 0.329),
  ('PGHSWMMSDDPDRYMNNLTV', -0.053),
  ('ITYNIEISMRDF', 4.32),
  ('KCIIRTNKFFAFHVCKLTVN', 0.498),
  ('NLSDLLFLQSTSEGLSLFSI', -0.621);

Noted for LRTYYPRNVGA : its amyloid nucleation score reads -0.117

// field: amyloid nucleation score; key: FTNVSEIWMSFGHNPESGLA ; value = 2.92

The sequence KWCPLFKGSIGFSFLVHTMK showed amyloid nucleation score equal to -1.26

In plain terms, TSRYTHNCMPIDCMIMHMGI has a documented amyloid nucleation score of 1.77

====

- assay remarks: amyloid nucleation score (Sup35N fusion, yeast selection) (log enrichment); library NNK2; higher = more nucleation; inactive = no reads after selection
measured attribute: amyloid nucleation score
Format: numeric value only, no unit, no commentary.

Here is how some sequences turned out for amyloid nucleation score.
INSERT INTO assay_data (seq_string, measured_attribute, readout_value) VALUES
  ('TSGDCYMNGILNNGWGQ', 'amyloid nucleation score', -1.42),
  ('DMDRCLGY', 'amyloid nucleation score', 0.812);

Looking up DMWTSFWSCSTYRKEYFTRC , I found its amyloid nucleation score recorded as 1.25

Per the records, this sequence ( SSRVDVVISHQREAIGSRQC ) has amyloid nucleation score equal to 5.11

GET /value?item= SYIGFVSIGSNMNRCSFDKF &field=amyloid nucleation score returns -0.116

get_value(item= RDVWVRGLACLVASSTMHSS , readout=amyloid nucleation score) returns 0.999
